test system: RAW-Dual (murine macrophage reporter line); assay: NF-kB reporter (SEAP) activity fold change vs agonist alone; higher = enhanced NF-kB activity; details: modulator concentration 10 µM; agonist: MPLA […]

Molecule: CCn1ccc(C(=O)N2CCN(c3cc(C(F)(F)F)nc(C)n3)CC2)n1
Target Desc: RAW-Dual (murine macrophage reporter line)
NF-kB reporter: 1.01
--
Molecule: CCOc1nc2cccc(C(=O)OC(C)OC(=O)OC3CCCCC3)c2n1Cc1ccc(-c2ccccc2-c2nnn[nH]2)cc1 (stereo not given)
Target Desc: RAW-Dual (murine macrophage reporter line)
NF-kB reporter: 0.976
--
Molecule: O=c1n(CCCN2CCN(c3cccc(Cl)c3)CC2)nc2ccccn12 [Prestw-292]
Target Desc: RAW-Dual (murine macrophage reporter line)
NF-kB reporter: 0.899
--
Molecule: O=C(Cn1cnc(-c2ccc(Cl)cc2)cc1=O)N1CCOCC1
Target Desc: RAW-Dual (murine macrophage reporter line)
NF-kB reporter: 0.925
--
Molecule: O=C(O)c1cc(NC(=O)c2ccc(Cl)c([N+](=O)[O-])c2)cc(C(=O)O)c1
Target Desc: RAW-Dual (murine macrophage reporter line)
NF-kB reporter: 1.02

---

Below, each entry is listed with its recorded NF-kB reporter.
test system: RAW-Dual (murine macrophage reporter line); assay: NF-kB reporter (SEAP) activity fold change vs agonist alone; higher = enhanced NF-kB activity; settings: modulator concentration 10 µM; agonist: CpG ODN 1826 0.5 ug/mL

Compound: CCOC(=O)C1=C(C)OC(N)=C(C#N)C1c1cc(C)c(OC)cc1C (stereo not given)
NF-kB reporter: 0.925
--
Compound: CS(=O)(=O)N1CC(C(=O)N2CCN(c3cccc(Cl)c3Cl)CC2)C1
NF-kB reporter: 1.16
--
Compound: Cc1c(C(=O)Nc2ccc(N3C[C@@H](C)O[C@@H](C)C3)nc2)cccc1-c1ccc(OC(F)(F)F)cc1
NF-kB reporter: 1.25
--
Compound: Cc1ccc(S(=O)(=O)Nc2ccccc2-c2nc3ccccc3o2)cc1
NF-kB reporter: 2.45
--
Compound: Cc1cc(CNS(=O)(=O)Cc2ccc(C(F)(F)F)cc2)c(C)o1
NF-kB reporter: 1.01
--
Compound: CCCCCCc1cc2cc(-c3nc(-c4ccc(Oc5ccccc5)cc4)cs3)c(=O)oc2cc1O
NF-kB reporter: 0.962
--
Compound: COC(=O)C1=C(C)NC(=O)CC1c1ccc(Cl)c(Cl)c1 (stereo not given)
NF-kB reporter: 0.982
--
Compound: COc1cccc(C2Nc3ccccc3-c3nnc(SC)nc3O2)c1OCC(=O)O (stereo not given)
NF-kB reporter: 0.989
--
Compound: COc1ccc(Nc2nc(N3CCCCC3)c3cnn(C)c3n2)cc1
NF-kB reporter: 0.753
--
Compound: Cc1cccc(-c2nn3c(c2-c2ccnc4ccc(C(N)=O)cc24)CCC3)n1
NF-kB reporter: 1.08

---

tested on: RAW-Dual (murine macrophage reporter line); assay: NF-kB reporter (SEAP) activity fold change vs agonist alone; higher = enhanced NF-kB activity; settings: modulator concentration 10 µM; agonist: MPLA […]
Value Type: NF-kB reporter

Compound: O=S(=O)(c1ccc(-n2cccn2)cc1)N1CC(n2cc(C3CC3)nn2)C1
Experimental Result: 0.939
--
Compound: CN1CCN(c2c(F)cc3c(=O)c(C(=O)O)cn4c3c2OCN4C)CC1
Experimental Result: 0.971
--
Compound: CC(=O)Nc1ccc(CC(=O)N2C3C=CCC2CC3)cc1 (stereo not given)
Experimental Result: 1.04
--
Compound: Nc1nnc(C(=O)O)[nH]1
Experimental Result: 1.03
--
Compound: C=CCn1c(=N)n(CC(O)c2ccco2)c2ccccc21.Cl (stereo not given)
Experimental Result: 1.21
--
Compound: Cl.Nc1c2c(nc3ccccc13)CCCC2
Experimental Result: 0.918
--
Compound: CCN(CC)CCOC(=O)C(c1ccccc1)c1ccccc1
Experimental Result: 1.91
--
Compound: CCC(=O)N1CCCC1c1nc2ccccc2n1CCOc1ccc(Cl)cc1 (stereo not given)
Experimental Result: 1.2
--
Compound: CS(=O)(=O)O.O=C(NC1CCN(CCCCC2(C(=O)NCC(F)(F)F)c3ccccc3-c3ccccc32)CC1)c1ccccc1-c1ccc(C(F)(F)F)cc1
Experimental Result: 0.118
--
Compound: O=C(Nc1cc(C(F)(F)F)cc(C(F)(F)F)c1)c1ccc([N+](=O)[O-])cc1
Experimental Result: 1.02

---

tested on: RAW-Dual (murine macrophage reporter line); assay: NF-kB reporter (SEAP) activity fold change vs agonist alone; higher = enhanced NF-kB activity; conditions: modulator concentration 10 µM; agonist: CpG ODN 1826 0.5 ug/mL
Mark label 1 for reported NF-kB reporter of 0.9 or greater; mark label 0 for anything smaller.

Compound: O=C(NCC1CCN(C(=O)c2ccncc2)CC1)c1ccc(Oc2ccccc2)cc1
Assigned Label: label 1

Compound: OC(c1cc(C(F)(F)F)nc2c(C(F)(F)F)cccc12)C1CCCCN1 (stereo not given) [Prestw-126]
Assigned Label: label 0

Compound: CN1CCC(=C2c3ccccc3C=Cc3ccccc32)CC1 [Prestw-103]
Assigned Label: label 0

Compound: OC(CNC1CCCCC1)Cn1c2ccc(Cl)cc2c2cc(Cl)ccc21 (stereo not given)
Assigned Label: label 0

Compound: CCN(CC)CCN1C(=O)C(O)=C(C(=O)c2ccc(Br)cc2)C1c1ccccc1F (stereo not given)
Assigned Label: label 0

Compound: Cl.Clc1ccccc1CN1CCc2sccc2C1
Assigned Label: label 1

Compound: Cc1ccc(S(=O)(=O)NC(=O)NN2CC3CCCC3C2)cc1 (stereo not given)
Assigned Label: label 1

Compound: CC(C)(C)n1cnc2cc(N=Cc3ccc(Cl)cc3)ccc21
Assigned Label: label 1

Compound: CCN(CC)CCNC(=O)c1c(C)[nH]c(/C=C2\C(=O)Nc3ccc(F)cc32)c1C.O=C(O)C[C@H](O)C(=O)O
Assigned Label: label 0

---

system: RAW-Dual (murine macrophage reporter line); assay: NF-kB reporter (SEAP) activity fold change vs agonist alone; higher = enhanced NF-kB activity; conditions: modulator concentration 10 µM; agonist: CpG ODN 1826 0.5 ug/mL
Value Type: NF-kB reporter

Compound: O=C(O)CN1C(=O)c2cccc3cccc(c23)C1=O
Value Type: NF-kB reporter
Experimental Result: 1.11
--
Compound: O=C(c1ccccc1)C1OC1(CBr)c1ccccc1 (stereo unspecified)
Value Type: NF-kB reporter
Experimental Result: 1.06
--
Compound: Cc1cc(OC2CCN(S(=O)(=O)CCc3ccccc3)C2)cc(=O)n1C (stereo unspecified)
Value Type: NF-kB reporter
Experimental Result: 1.13
--
Compound: CC(C)(C)C(=O)C(Oc1ccc(Cl)cc1)n1ccnc1 (stereo unspecified)
Value Type: NF-kB reporter
Experimental Result: 1.3
--
Compound: CC(C)=CCCC(C)=CC=NNC(=S)Nc1ccc(C)cc1
Value Type: NF-kB reporter
Experimental Result: 0.855
--
Compound: CCCCC(=O)N(Cc1ccc(-c2ccccc2-c2nn[nH]n2)cc1)C(C(=O)O)C(C)C (stereo unspecified)
Value Type: NF-kB reporter
Experimental Result: 1.12

---

test system: RAW-Dual (murine macrophage reporter line); test: IRF reporter (Lucia luciferase) activity fold change vs agonist alone; higher = enhanced IRF activity; conditions: modulator concentration 10 µM; agonist: 3'3'-cGAMP 10 ug/mL
Value Type: IRF reporter

Compound: O=S(=O)(c1ccc(F)cc1)n1cccc1
Value Type: IRF reporter
Experimental Result: 1.02
//
Compound: C=CCn1c(S)nnc1-c1cc(OC)c(OC)c(OC)c1
Value Type: IRF reporter
Experimental Result: 0.97
//
Compound: COc1ccc(C(O)CN2CCN(c3cccc(C)c3C)CC2)cc1OC (stereo not drawn)
Value Type: IRF reporter
Experimental Result: 0.956
//
Compound: CCOC(=O)C1=C(C)NC(C)=C(C(=O)OCC)C1c1ccccc1/C=C/C(=O)OC(C)(C)C
Value Type: IRF reporter
Experimental Result: 0.586
//
Compound: CC(=O)N1CC(c2ccc(OC(C)C)cc2)CC1=O (stereo not drawn)
Value Type: IRF reporter
Experimental Result: 1.05
//
Compound: O=c1[nH]c(=O)n(C2CC(O)C(CO)O2)cc1F (stereo not drawn)
Value Type: IRF reporter
Experimental Result: 0.321
//
Compound: COc1ccc(C=C(NC(=O)c2cc(OC)c(OC)c(OC)c2)C(=O)NC(C(=O)O)C(C)C)c(OC)c1 (stereo not drawn)
Value Type: IRF reporter
Experimental Result: 0.908
//
Compound: COC(=O)c1ccc2c(c1)NC(=O)/C2=C(\Nc1ccc(N(C)C(=O)CN2CCN(C)CC2)cc1)c1ccccc1
Value Type: IRF reporter
Experimental Result: 0.325
//
Compound: C=CCn1c(=N)n(CC(O)c2ccco2)c2ccccc21.Cl (stereo not drawn)
Value Type: IRF reporter
Experimental Result: 1.07
//
Compound: Cc1ccc(N2C(=O)CC(Nc3ccc(N4CCOCC4)cc3)C2=O)cc1 (stereo not drawn)
Value Type: IRF reporter
Experimental Result: 0.641
//
Compound: COc1ccc2c(C)nc(Nc3nc(C)cc(-c4ccccc4)n3)nc2c1
Value Type: IRF reporter
Experimental Result: 0.914
//
Compound: C#Cc1cccc(Nc2ncnc3cc(OCCOC)c(OCCOC)cc23)c1
Value Type: IRF reporter
Experimental Result: 0.948
//
Compound: Cn1c(=O)cc(N2CCC[C@@H](N)C2)n(Cc2cc(F)ccc2C#N)c1=O
Value Type: IRF reporter
Experimental Result: 0.225
//
Compound: S=C(NCc1ccc2c(c1)OCO2)N1CCN(c2ncnc3c2oc2ccccc23)CC1
Value Type: IRF reporter
Experimental Result: 0.623
//
Compound: O=Cc1ccc(OCc2cccc([N+](=O)[O-])c2)c(Br)c1
Value Type: IRF reporter
Experimental Result: 0.963
//
Compound: COC(C)(CNC(=O)CSc1ccc(F)cc1)c1cccc(Cl)c1 (stereo not drawn)
Value Type: IRF reporter
Experimental Result: 0.973
//
Compound: NC(=O)c1cccnc1
Value Type: IRF reporter
Experimental Result: 0.912
//
Compound: CN(C)CC/C=C1/c2ccccc2Sc2ccc(Cl)cc21
Value Type: IRF reporter
Experimental Result: 0.925
//
Compound: CC(=O)N(C1=C(Nc2ccccc2)C(=O)c2ccccc2C1=O)c1ccccc1
Value Type: IRF reporter
Experimental Result: 2.12
//
Compound: COc1ccc(N(CC(=O)N2CCc3ccccc3C2)S(C)(=O)=O)cc1Cl
Value Type: IRF reporter
Experimental Result: 1.06
//
Compound: CC1(C)Cc2ccccc2C(=C(C#N)C#N)N1
Value Type: IRF reporter
Experimental Result: 1.03
//
Compound: NNC(=O)CN1C(=O)C2CC=C(Cl)CC2C1=O (stereo not drawn)
Value Type: IRF reporter
Experimental Result: 0.999
//
Compound: Cc1cccc(CCC(=O)N2CCCC(Oc3ccnc(C)n3)C2)c1 (stereo not drawn)
Value Type: IRF reporter
Experimental Result: 0.731
